These measurements were taken from patent US20110136728A1.

Design: species or system male Swiss Webster mice
test settings: mouse, in vivo, Relative oral bioavailability
Non-standard residues stand in square brackets, D forms with d. Residues, ends and D or L forms follow the SMILES beside them.
value type: bioavailability (%)
Give bare numbers, in %.

Note to self: bioavailability recorded for CC(C)C[C@@H](NC(=O)[C@H](CO)NC(=O)[C@H](CS)NC(=O)[C@@H](N)CO)C(=O)N1CCC[C@H]1C(=O)N[C@@H](CCC(N)=O)C(=O)N[C@H](C(N)=O)[C@@H](C)O [mouse [D-Leu-4]-OB3] (H-SCS[dL]PQT-NH2; N-terminus assumed) was 47.3
